Biological target: T1, recombinant human α5β1 integrin (rh-α5β1; R&D Systems, cat. no. 3230-A5) (human, UniProt P08648 42-995; P05556 21-728)
T1 construct: bought recombinant heterodimer
T1 sequence (P08648 42-995 limits assumed, form in doubt, chain 1 of 2): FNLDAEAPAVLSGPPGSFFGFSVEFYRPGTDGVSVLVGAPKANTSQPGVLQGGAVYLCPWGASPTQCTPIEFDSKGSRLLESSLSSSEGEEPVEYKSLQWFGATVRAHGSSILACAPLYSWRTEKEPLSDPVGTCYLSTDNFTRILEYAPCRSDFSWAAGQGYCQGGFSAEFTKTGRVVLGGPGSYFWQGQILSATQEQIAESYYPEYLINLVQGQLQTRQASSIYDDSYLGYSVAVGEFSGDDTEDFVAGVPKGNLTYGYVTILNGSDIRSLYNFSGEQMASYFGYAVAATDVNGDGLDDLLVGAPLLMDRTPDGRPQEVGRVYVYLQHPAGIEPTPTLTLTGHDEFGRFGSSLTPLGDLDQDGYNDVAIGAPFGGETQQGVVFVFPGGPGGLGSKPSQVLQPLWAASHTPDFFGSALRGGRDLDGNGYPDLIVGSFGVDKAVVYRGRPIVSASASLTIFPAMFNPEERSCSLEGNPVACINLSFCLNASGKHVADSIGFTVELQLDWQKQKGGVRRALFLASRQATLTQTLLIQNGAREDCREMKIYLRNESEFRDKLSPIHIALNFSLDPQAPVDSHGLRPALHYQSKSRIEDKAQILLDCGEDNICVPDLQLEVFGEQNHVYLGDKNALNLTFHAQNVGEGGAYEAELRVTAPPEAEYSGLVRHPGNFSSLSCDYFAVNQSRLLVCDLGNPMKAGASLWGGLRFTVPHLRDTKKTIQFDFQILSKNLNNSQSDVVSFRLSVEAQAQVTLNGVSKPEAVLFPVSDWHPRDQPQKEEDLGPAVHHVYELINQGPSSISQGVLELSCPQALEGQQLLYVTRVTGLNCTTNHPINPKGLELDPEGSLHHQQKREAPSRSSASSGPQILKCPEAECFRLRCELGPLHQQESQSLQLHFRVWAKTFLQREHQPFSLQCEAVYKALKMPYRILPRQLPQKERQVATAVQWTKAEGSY
T1 sequence (P05556 21-728 limits assumed, form in doubt, chain 2 of 2): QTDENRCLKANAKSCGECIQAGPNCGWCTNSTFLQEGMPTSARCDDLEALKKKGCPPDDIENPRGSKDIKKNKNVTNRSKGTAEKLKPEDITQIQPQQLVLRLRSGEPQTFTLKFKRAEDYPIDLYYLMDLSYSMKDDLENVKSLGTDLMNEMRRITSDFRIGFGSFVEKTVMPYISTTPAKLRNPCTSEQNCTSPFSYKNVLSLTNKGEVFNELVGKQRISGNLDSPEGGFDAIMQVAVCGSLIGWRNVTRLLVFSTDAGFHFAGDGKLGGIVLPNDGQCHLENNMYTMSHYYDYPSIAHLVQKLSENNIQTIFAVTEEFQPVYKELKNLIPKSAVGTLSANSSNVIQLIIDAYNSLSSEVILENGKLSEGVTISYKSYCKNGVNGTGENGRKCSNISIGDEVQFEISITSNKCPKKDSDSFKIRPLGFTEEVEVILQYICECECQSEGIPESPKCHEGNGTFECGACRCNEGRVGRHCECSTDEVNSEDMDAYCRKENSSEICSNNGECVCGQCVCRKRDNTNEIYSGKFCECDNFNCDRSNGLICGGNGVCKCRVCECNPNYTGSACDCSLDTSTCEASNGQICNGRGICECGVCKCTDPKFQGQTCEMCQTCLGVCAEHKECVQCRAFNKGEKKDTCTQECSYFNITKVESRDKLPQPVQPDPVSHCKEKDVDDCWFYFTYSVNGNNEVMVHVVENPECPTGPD
Test: ELISA, coated rh-α5β1, supernatant 1:10
measured quantity: Absorbance 450 nm
# print the numeric value only

binder	Absorbance 450 nm
A2-5D10 (antibody, V domains shown, mouse hybridoma antibody) VH: QVQLKESGPGLVAPSQSLSITCTISGFSLTSYGVHWVRQPPGKGLEWLVVIWSDGSTTYNSTLKSRLSISKDNSKSQVFLKMNSLQTDDTAMYYCARHYDYDGDWFAYWGQGTLVTVSA VL: QILLTQSPAIMSASLGERVTMTCTASSSVSSRCLHWYQQKPGSSPKLWIYSTSNLASGVPARFRGSGSGTSYSLTISSMEAEDAATYYCHQYYRSPPTFGGGTKLEIK	2.31

Which measured Absorbance 450 nm value corresponds to A2-7A05 (antibody, V domains shown, mouse hybridoma antibody; also called A2-7A05 (hybridoma)) VH: QVQLQQPGAELVKPGASVKLSCKASGYTFTIYWINWVKQRPGQGLEWIGKIYPGSISTDYNEKFKSKATLTVDTSSSTAYMQLSSLTSDDSAVYYCAITGTGGLAYWGQGTLVTVSA VL: ENVLTQSPAIMSASLGEKVTMTCRASSSVNYMYWYQQKSDASPKLWIYFTSSLAPGVPGRFSGSGSGNSYSLTISTMEGEDAATYYCQQFTTSPFTFGSGTKLEIK ?
2.05
